- assayed_target: Cytochrome P450 2C19 (Homo sapiens)
- Sequence (P33261 whole entry): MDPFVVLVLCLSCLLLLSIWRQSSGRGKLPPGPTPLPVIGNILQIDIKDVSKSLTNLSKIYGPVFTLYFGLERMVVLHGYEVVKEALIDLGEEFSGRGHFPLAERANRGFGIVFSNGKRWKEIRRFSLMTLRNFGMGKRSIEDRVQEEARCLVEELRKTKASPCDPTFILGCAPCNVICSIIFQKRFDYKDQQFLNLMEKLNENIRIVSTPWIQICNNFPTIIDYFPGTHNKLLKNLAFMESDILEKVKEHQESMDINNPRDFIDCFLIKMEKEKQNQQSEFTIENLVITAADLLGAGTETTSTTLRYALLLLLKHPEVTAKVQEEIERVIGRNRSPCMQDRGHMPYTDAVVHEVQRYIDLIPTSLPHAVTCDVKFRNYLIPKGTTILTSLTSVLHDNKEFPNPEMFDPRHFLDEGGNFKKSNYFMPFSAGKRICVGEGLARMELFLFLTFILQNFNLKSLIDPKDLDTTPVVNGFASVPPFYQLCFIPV
- measurement_notes: Cytochrome panel assay with activity outcomes. Panel member name: p450-cyp2c19 Compounds with AC50 equal or less than 10 uM are considered active
- Format: functional
- measurement_context: read-out: AC50
measurement_name: AC50

Illustrative cases are given below, each with its answer.
O=C(CC1CCCC1)Nc1ccc2c(c1)CCC2
7.08 µM (inconclusive)
O[C@@H](c1cc([C@@]23C[C@H]4CC[C@@H]2C[C@H](C4)C3)nc2c(Cl)cc(Cl)cc12)[C@@H]1CCCCN1
0.794 µM (inconclusive)

AC50 for Cc1ccc(CCN2CC(C(=O)NC3CCCC3)CC2=O)cc1 (stereo not drawn) is 14.1 µM (inconclusive)

Documented AC50 of COc1ccccc1-c1cncnc1NCc1cnc(C)cn1 : 31.6 µM (inconclusive)

Memo: COC(=O)C(C)Sc1nc(O)c2cnn(-c3ccc(C)cc3)c2n1 (stereo not drawn) , reported AC50: 7.94 µM (inconclusive)

Documented AC50 of O=C(Nc1cccc(F)c1)N1CCC2(CC1)CCN(C(=O)c1ccco1)CC2 : 10 µM (inconclusive)

In plain terms, Cc1cc(-c2cccc([N+](=O)[O-])c2)nc2ccc3ccccc3c12 has a documented AC50 of 20 µM (inconclusive)

Sample O=C(CCc1ccccc1)Nc1nncs1 ; AC50 observed: 39.8 µM (inconclusive)

====

Property: EC50; scope: individual molecules
- assayed_target: Protein RecA (Mycobacterium tuberculosis, UniProt P9WHJ3)
- measurement_notes: Fluorescence Cell-Free Homogeneous Dose Retest to Identify Inhibitors of RecA-Intein Splicing Activity. [Related pubchem assays (depositor defined):AID2097, AID2223, AID489010, AID492950]
- Type: functional
Active and inactive are the calls of the source.

Example molecules with recorded EC50:
CNC(=O)c1nnsc1[S+]([O-])c1ccc(Cl)cc1 (stereo not drawn)
21 µM (active)
C/C(CC(=O)Nc1cc(C)ccn1)=N\NC(=O)c1ccncc1
4.03 µM (active)

The molecule listed as COc1cc(C(=O)NCC(=O)N/N=C/c2cccc(OC(=O)c3ccco3)c2)cc(OC)c1OC shows EC50 equal to 16.6 µM (active)

====

A collection of compounds and their measured IC50
- assayed_target: UniProt:Q8IL11
- Sequence (Q8IL11 whole entry): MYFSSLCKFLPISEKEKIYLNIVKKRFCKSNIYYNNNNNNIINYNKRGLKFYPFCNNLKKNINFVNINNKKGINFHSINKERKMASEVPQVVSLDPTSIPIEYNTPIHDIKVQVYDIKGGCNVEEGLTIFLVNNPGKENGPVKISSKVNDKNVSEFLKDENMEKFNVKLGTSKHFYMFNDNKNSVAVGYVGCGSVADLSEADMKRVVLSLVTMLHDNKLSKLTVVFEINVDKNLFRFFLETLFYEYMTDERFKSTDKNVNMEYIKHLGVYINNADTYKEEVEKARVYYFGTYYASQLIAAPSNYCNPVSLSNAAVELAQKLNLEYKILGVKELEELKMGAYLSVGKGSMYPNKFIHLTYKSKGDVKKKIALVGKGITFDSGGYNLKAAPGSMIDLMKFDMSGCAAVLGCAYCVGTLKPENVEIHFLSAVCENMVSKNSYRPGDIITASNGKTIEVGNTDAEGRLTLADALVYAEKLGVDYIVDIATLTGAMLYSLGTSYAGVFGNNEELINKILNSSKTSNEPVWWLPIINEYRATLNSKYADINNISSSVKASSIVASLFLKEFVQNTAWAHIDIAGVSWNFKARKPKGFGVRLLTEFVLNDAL
- measurement_notes: P. falciparum M17LAP inhibitors, primary screen, biochemical, fluorogenic H-Leu-NHMec substrate, 1536-well (AID 1619)
- Type: functional
Calls of active or inactive are those of the source.

Some compounds with known IC50 results, for comparison:
CC(=O)c1cc2c(O)c(O)ccc2o1
75.4 µM (active)
Cc1nc(SCC(=O)Nc2ccc3c(c2)OCCO3)nc(C)c1C
43.5 µM (active)
O=C(CN1C(=O)c2ccccc2C1=O)Nc1ccc2c(c1)OCO2
9.43 µM (active)

Moving on to another compound below.
Measured IC50, Cn1c(=S)[nH]c2c(c1=O)C(C)(C)Cc1ccccc1-2 : 1.9 µM (active)

====

Reported IC50 values for a set of molecules
- assayed_target: Calpain-2 catalytic subunit (Sus scrofa)
- Sequence (P43367 whole entry): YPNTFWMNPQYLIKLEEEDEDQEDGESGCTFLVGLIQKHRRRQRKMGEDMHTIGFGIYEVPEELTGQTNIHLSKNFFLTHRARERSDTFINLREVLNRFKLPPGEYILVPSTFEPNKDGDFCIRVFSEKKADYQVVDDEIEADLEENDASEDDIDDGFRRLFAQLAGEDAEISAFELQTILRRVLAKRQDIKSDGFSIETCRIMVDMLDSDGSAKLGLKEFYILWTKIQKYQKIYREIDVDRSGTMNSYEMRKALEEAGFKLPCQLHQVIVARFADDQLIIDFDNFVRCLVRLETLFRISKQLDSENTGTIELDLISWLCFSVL
- measurement_notes: m-calpain protease blockers, concentration series – biochemical, fluorogenic peptide substrate, dose response (AID 1420)
- Assay type: functional

c1cnc2c(OCc3nc4ccccc4[nH]3)cccc2c1
7.55 µM (not active)
Cc1cccc(Nc2ncccc2C(=O)NCc2cccs2)c1C
14.4 µM (not active)
CNC(=O)COC(=O)CNC(=O)c1cc(Cl)cc([N+](=O)[O-])c1
> 50 µM (not active)

Record for COc1c(Cl)cc(C(=O)Nc2ccccc2-c2ccccc2)cc1Cl under target or system Calpain-2 catalytic subunit (Sus scrofa): IC50 reported as > 50 µM (not active)

Record for Cc1ccc(C(=O)N(Cc2ccccc2)C(C)(C)C)cc1C under target or system Calpain-2 catalytic subunit (Sus scrofa): IC50 reported as 16.6 µM (not active)

Tested on Calpain-2 catalytic subunit (Sus scrofa): CCCCN(CC)CCCN=C(S)Nc1ccc2nc3n(c(=O)c2c1)CCCCC3 . Observed IC50: < 0.4 µM (not active)

Entry COc1ccc([N+](=O)[O-])cc1NC(=O)CSc1ccc2ccccc2c1 : IC50 on Calpain-2 catalytic subunit (Sus scrofa) = 2.92 µM (not active)

Form field, IC50 with Calpain-2 catalytic subunit (Sus scrofa), item O=C(CSc1nc(-c2ccc(F)cc2)nc2c1Cc1ccccc1O2)Nc1ccc(C(=O)O)cc1 : > 50 µM (not active)

Given the molecule CCc1cc2c(=O)n(Cc3ccccc3)c(SC3CCOC3=O)nc2s1 (stereo not given) and test system Calpain-2 catalytic subunit (Sus scrofa), the measured IC50 is 12.6 µM (not active)

Tested system Calpain-2 catalytic subunit (Sus scrofa); IC50 recorded for Cc1c(C=O)c2ccccc2n1CC(=O)NC(C)c1ccccc1 (stereo not given) was > 50 µM (not active)

====

- assayed_target: RNA-binding protein pos-1 (Caenorhabditis elegans)
- Sequence (G5EF15 whole entry, the tested form may be a part): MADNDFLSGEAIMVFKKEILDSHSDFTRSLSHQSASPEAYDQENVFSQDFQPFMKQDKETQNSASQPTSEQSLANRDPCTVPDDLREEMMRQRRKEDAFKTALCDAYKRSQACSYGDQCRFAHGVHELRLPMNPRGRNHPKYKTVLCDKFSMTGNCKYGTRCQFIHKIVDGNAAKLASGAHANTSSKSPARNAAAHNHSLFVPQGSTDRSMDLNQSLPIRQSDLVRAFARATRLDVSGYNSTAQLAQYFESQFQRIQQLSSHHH
- measurement_notes: disruptors of C. elegans POS-1 RNA interaction – biochemical, fluorescence polarization, dose response (AID 1964);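 further: purified POS-1 fused to maltose binding protein made in E. coli; potency of compounds blocking POS-1 binding to fluorescent RNA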
Activity calls are given as the source filed them.
measurement_name: EC50

# example entries with known answers
CCOc1ccc2nc3cc(NCc4ccc(OC)cc4)ccc3c(N)c2c1
4.47 µM (active)
O=C1N=C(N2CCCCC2)S/C1=C/C1=Cc2ccccc2OC1
> 300 µM (not active)

COCCN1CCC(CNCc2c[nH]nc2-c2ccc(C)c(C)c2)C1 (stereo not drawn) has a reported EC50 of > 300 µM (not active)

====

- Tested on: SN12K1
- measurement_notes: cells
- Format: functional
- measurement_context: Homo sapiens
Activity calls are given as the source filed them.
Tick one outcome: active, inactive

Answered examples (4):
OC[C@H]1O[C@@H](n2cnc3cncnc32)[C@H](O)[C@@H]1O [NEBULARINE]
inactive
C=C1C(C)C2C(Cc3ccccc3)NC(=O)C23OC(=O)/C=C\CC(=O)CCC(C)C/C=C/C3C1O (stereo not given)
active
CC(=O)OC1CCC2(C)C(CCC3C2CCC2(C)C(c4ccc(=O)oc4)C(OC(C)=O)CC32O)C1 (stereo not given)
active
O=C1Sc2sc(=S)sc2SC1c1ccccc1 (stereo not given)
inactive

Consider now this further molecule.
Field: outcome | Entry: COc1cc(/C=C/C(=O)Oc2ccc(NC(C)=O)cc2)ccc1C(=O)O/C=C/c1ccccc1
inactive

====

- assayed_target: Protein skinhead-1 (Caenorhabditis elegans)
- Sequence (P34707 whole entry): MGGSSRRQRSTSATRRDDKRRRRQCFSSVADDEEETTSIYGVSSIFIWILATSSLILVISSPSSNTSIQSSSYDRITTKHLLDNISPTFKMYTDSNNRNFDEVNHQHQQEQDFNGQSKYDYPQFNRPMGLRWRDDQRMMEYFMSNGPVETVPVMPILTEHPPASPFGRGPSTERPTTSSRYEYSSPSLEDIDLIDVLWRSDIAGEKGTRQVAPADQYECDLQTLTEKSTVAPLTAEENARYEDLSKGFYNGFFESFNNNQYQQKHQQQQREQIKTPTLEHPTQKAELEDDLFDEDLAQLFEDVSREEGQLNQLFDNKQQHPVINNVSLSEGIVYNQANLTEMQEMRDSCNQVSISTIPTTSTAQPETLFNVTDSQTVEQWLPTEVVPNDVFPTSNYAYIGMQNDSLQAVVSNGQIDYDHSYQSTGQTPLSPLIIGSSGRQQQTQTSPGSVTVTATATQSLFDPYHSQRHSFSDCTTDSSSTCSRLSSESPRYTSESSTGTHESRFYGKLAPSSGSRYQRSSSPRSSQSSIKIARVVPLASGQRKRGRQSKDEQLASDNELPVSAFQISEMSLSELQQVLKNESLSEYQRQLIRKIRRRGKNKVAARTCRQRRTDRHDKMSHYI
- Type: functional
Calls of active or inactive are those of the source.
The reply should be one of these categories: 1 = active, 0 = inactive

Look over these answered cases.
CCCOc1ccc(N2C(=O)CC(N(CCc3ccc(OC)cc3)C(=O)c3cccc(F)c3)C2=O)cc1 (stereo unspecified)
0
Clc1ccc(-c2cc(-c3ccccn3)on2)c(Cl)c1
0
O=C(/C=C/c1ccccc1)/C=C/c1ccccc1
1
O=C(COC(=O)CCNS(=O)(=O)c1ccccc1)Nc1ccc(OC(F)F)cc1
0
Cc1ccc2nc(NC(=O)c3ccco3)sc2c1
0

For CCOc1ccc(-c2nnc(-c3ccccc3)o2)cc1 , which call appears in the assay record?
0

// return assay outcome for Cc1c(Cl)c(-c2nnc(S)n2-c2ccc(F)cc2)nn1C
0

====

Overview of recorded Ki for various compounds
- assayed_target: Glycogen synthase kinase-3 beta (Homo sapiens);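 further: value comes from a broad kinome profiling panel, with GSK3B as the panel member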
- Sequence (P49841 whole entry): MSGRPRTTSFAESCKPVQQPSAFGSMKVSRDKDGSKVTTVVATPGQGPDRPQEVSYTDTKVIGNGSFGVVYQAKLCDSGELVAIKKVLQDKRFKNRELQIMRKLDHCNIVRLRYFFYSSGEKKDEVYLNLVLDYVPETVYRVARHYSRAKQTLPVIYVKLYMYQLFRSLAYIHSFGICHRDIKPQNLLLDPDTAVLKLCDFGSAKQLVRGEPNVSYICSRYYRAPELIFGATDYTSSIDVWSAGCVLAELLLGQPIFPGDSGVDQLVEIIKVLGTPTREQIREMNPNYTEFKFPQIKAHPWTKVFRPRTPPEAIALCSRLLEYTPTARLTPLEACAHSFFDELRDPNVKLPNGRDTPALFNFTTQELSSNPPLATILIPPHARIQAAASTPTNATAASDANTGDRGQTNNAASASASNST
- Assay type: functional
Active and inactive are the calls of the source.

O=C(Nc1cc(-c2c[nH]c3ncccc23)cc(Cl)n1)c1ccccc1
> 3980 nM (inactive)
Nc1c(-c2ccc(NC(=O)Nc3cccc(C(F)(F)F)c3)cc2)cnc2c(-c3ccc4c(c3)OCO4)cnn12
> 3980 nM (inactive)
COCC(C)Nc1cc(-c2c[nH]c3ncccc23)cc(Cl)n1 (centres undefined)
251 nM (active)

Would you kindly look at the next entry?
Assay Glycogen synthase kinase-3 beta (Homo sapiens), sample c1ccc(Cn2cc(-c3ccc4[nH]nc(-c5ccccc5)c4c3)nn2)cc1 , Ki read: 20 nM (active)

Reference for the values: ChEMBL document CHEMBL1201862
